targetEntity: B1 bradykinin receptor (Homo sapiens, UniProt P46663)
Sequence (P46663 whole entry): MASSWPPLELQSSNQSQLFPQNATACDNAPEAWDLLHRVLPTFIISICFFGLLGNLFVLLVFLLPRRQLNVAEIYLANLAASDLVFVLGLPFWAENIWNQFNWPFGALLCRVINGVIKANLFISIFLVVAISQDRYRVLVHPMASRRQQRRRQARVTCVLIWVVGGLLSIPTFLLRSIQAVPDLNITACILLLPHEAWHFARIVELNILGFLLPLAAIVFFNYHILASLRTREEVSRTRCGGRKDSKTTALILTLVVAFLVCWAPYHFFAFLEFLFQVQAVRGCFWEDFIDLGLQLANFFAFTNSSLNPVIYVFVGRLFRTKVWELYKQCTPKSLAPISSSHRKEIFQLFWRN
pKi: −log10 of the molar value.
Several reports have described pKi for B1 bradykinin receptor (Homo sapiens, UniProt P46663); a selection of those results is presented here.
measurementKind: pKi

{"columns": ["molecule", "pKi"],
 "data": [
  ["COC(=O)c1c(F)cccc1-c1ccc(CNC(=O)CO)c(F)c1", 6.29],
  ["C=C(CN1CC[C@@H](O)C1)c1ccc2c(c1)CCC[C@H]2NC(=O)C[C@@H](NS(=O)(=O)c1cccc(C(F)(F)F)c1)c1ccccc1", 7.92],
  ["O=C(N[C@H]1CCCc2cc(CN3CCCCC3)ccc21)c1ccc(-c2coc3c(Cl)cccc3c2=O)cc1", 6.32]
]}

(I) COC(=O)c1c(Cl)cc(Cl)cc1-c1cnc([C@@H](C)NC(=O)[C@@](C)(O)C(F)(F)F)c(F)c1
(II) O=C(N[C@@H]1CCCc2cc(CN3CCCCC3)ccc21)c1cccc(-c2coc3ccc(F)cc3c2=O)c1
(III) C[C@@H](NC(=O)C1(O)CCOCC1)c1ncc(-c2cc(Cl)cc(F)c2-c2nnn(C)n2)cc1F
(IV) COC(=O)c1ccccc1C1=CCC(CNc2nccc(C)c2NC(=O)CC#N)CC1 (stereo not drawn)
(V) O=C(CC1C(=O)Nc2ccccc2N1S(=O)(=O)c1ccc(Cl)c(Cl)c1)Nc1ccccc1 (stereo not drawn)
In: Would you mind ranking these molecules by ascending pKi? Return the labels ranked in the requested order, please.
Out: V, II, IV, III, I
(V: 5.85, II: 6.40, IV: 7.60, III: 9.02, I: 9.46)
